Provenance of the data: patent US20240109917A1

TEST TARGET: Tb-labeled inactive PDGFRβ (Homo sapiens (Human), UniProt P09619)
Sequence (P09619 33-1106): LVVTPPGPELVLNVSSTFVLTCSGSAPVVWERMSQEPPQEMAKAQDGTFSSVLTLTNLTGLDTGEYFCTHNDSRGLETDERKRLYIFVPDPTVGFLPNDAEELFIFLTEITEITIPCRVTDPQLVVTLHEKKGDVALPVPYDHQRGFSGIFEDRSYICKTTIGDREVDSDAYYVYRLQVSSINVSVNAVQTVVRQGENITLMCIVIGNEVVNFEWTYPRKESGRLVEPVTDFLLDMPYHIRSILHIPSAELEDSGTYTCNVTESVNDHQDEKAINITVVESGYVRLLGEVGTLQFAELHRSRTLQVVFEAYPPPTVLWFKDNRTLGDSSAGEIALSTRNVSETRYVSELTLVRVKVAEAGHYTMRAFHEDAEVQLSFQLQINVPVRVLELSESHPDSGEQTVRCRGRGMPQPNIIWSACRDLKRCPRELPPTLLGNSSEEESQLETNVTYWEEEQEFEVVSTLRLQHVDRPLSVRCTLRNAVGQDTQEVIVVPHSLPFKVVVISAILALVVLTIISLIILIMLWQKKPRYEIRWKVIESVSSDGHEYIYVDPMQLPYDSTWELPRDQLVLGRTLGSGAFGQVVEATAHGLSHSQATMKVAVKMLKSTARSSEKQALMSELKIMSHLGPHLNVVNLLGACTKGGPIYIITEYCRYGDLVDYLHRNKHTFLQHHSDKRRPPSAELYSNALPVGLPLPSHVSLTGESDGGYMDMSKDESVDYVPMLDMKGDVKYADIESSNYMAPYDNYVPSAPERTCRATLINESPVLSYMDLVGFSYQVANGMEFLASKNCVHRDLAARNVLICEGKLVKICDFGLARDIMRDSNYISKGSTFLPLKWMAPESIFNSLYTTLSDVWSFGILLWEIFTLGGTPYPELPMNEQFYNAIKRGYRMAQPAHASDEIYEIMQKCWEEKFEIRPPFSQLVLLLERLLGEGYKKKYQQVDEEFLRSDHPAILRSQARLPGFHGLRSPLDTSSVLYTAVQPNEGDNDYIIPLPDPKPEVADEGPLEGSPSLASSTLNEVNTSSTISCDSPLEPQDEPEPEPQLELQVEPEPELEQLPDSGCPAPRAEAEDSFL
RUN DESCRIPTION: PDGFRβ LanthaScreen Assay
MEASUREMENT PARAMETERS: read-out: PDGFR Lantha IC50
pIC50: −log10 of the molar value.

| COMPOUND | TEST TARGET | BOUND SIGN | pIC50 |
| --- | --- | --- | --- |
| Cc1cc(C(=O)NCC(C)(C)N2CCCC2)sc1NC(=O)c1cnn2cc(-c3cnn(C)c3)sc12 [Example 202] | Tb-labeled inactive PDGFRβ (Homo sapiens (Human), UniProt P09619) | < | 5.52 |
| COCCn1cc(-c2cn3ncc(C(=O)Nc4cc(NC(=O)CN5CCCC56CCC6)cnc4C)c3s2)cn1 [Example 332] | Tb-labeled inactive PDGFRβ (Homo sapiens (Human), UniProt P09619) | = | 8.39 |
| Cc1ncc(NC(=O)CN2C3CCC2COC3)cc1NC(=O)c1cnn2cc(-c3cnn(C)c3)sc12 [Example 44] | Tb-labeled inactive PDGFRβ (Homo sapiens (Human), UniProt P09619) | = | 7.94 |
| COCCN(CCNC(=O)c1cnc(C)c(NC(=O)c2cnn3cc(-c4cnn(C)c4)sc23)c1)CCOC [Example 128] | Tb-labeled inactive PDGFRβ (Homo sapiens (Human), UniProt P09619) | = | 7.74 |
| Cc1ncc(C(=O)NCCN2CCCC2(C)C)cc1NC(=O)c1cnn2cc(-c3c(C)n[nH]c3C)sc12 [Example 231] | Tb-labeled inactive PDGFRβ (Homo sapiens (Human), UniProt P09619) | = | 8.48 |

----------
TEST TARGET: Tb-labeled inactive PDGFRβ (Homo sapiens (Human))
RUN DESCRIPTION: PDGFRβ LanthaScreen Assay
MEASUREMENT PARAMETERS: read-out: PDGFR Lantha IC50
ENDPOINT: IC50 (nM)

| COMPOUND | ENDPOINT | MEASUREMENT UNITS | REPORTED VALUE |
| --- | --- | --- | --- |
| Cc1ncc(NC(=O)CCN2CCC3(CC3)C2)cc1NC(=O)c1cnn2cc(-c3cnn(C)c3)sc12 | IC50 | nM | 9.8 |
| COc1ccc(-c2cn3ncc(C(=O)Nc4cc(NC(=O)CN5CC(C)(C)C5)cnc4C)c3s2)cn1 | IC50 | nM | 7.3 |
| Cc1ncc(NC(=O)CN(C)C2CCOCC2)cc1NC(=O)c1cnn2cc(-c3cnn(C(F)F)c3)sc12 | IC50 | nM | 13.5 |
| Cc1ncc(NC(=O)CN2CCc3c(cnn3C)C2)cc1NC(=O)c1cnn2cc(-c3cnn(C)c3)sc12 | IC50 | nM | 10.8 |
| Cc1ncc(NC(=O)C(C)N2CCCCCC2)cc1NC(=O)c1cnn2cc(-c3cnn(C)c3)sc12 (stereo not drawn) | IC50 | nM | 9 |
| Cc1ncc(NC(=O)OC[C@@H]2CCCN2C(C)C)cc1NC(=O)c1cnn2cc(-c3cnn(C)c3)sc12 | IC50 | nM | 10.8 |
| COCCn1cc(-c2cn3ncc(C(=O)Nc4cc(NC(=O)C[C@@H]5CCCN5C(C)C)cnc4C)c3s2)cn1 | IC50 | nM | 16.1 |
| Cc1ncc(NC(=O)CN2CCO[C@@H](C)C2)cc1NC(=O)c1cnn2cc(-c3cnn(C)c3)sc12 | IC50 | nM | 6.3 |
| Cc1ncc(C(=O)NCCN2CCCC2(C)C)cc1NC(=O)c1cnn2cc(-c3ccc(C(=O)O)cc3)sc12 | IC50 | nM | 6.3 |
